meta.source: patent US11571423B2

- STUDY_TARGET: hSTING(H232) (Homo sapiens)
- Sequence (Q86WV6 whole entry): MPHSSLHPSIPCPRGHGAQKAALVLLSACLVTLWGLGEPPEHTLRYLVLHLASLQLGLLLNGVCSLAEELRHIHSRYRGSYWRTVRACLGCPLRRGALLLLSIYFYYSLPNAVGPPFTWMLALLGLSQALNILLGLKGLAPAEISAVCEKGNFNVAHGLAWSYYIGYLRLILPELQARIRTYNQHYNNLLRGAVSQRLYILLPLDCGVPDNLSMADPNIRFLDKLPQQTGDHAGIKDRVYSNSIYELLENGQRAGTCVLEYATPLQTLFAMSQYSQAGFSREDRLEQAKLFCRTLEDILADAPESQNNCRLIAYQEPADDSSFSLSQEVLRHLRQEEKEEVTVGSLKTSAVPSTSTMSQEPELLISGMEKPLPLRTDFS
- EXPERIMENT_NOTES: Luciferase reporter assay in HEK293T-hSTING-Luciferase cells, H232/REF polymorph
- MEASUREMENT_CONTEXT: H232/REF polymorph of human STING, EC50 range class
- Excerpt: Stable Cell Line Generation • a) Stable STING expressing cells—Stable HEK293T STING-expressing cell lines were generated using plasmids purchased from Invivogen, CA, USA, that contain STING cDNA cloned into the pUNO-1 vector under hEF1-HTLV promoter and containing the Blasticidin selection cassette. […]
READOUT_LABEL: EC50

[
  {
    "SMILES_STRING": "Cc1ccc(Cl)c(CN2C(=O)N(C)[C@@H](C)c3ccc(C(=O)NCc4c(F)cc(F)cc4F)cc32)c1F",
    "READOUT_LABEL": "EC50",
    "ENDPOINT_RESULT": "< 1 µM"
  },
  {
    "SMILES_STRING": "Cc1nccc(CN2C(=O)N(C)[C@@H](C)c3ccc(C(=O)NCc4c(F)cc(F)cc4F)cc32)c1F",
    "READOUT_LABEL": "EC50",
    "ENDPOINT_RESULT": "< 1 µM"
  },
  {
    "SMILES_STRING": "C[C@H]1c2ccc(C(=O)NCc3c(F)cc(F)cc3F)cc2N(Cc2cc(OCCCO)cc(F)c2F)C(=O)N1C",
    "READOUT_LABEL": "EC50",
    "ENDPOINT_RESULT": "< 1 µM"
  }
]
